target: μ-opioid receptor (Homo sapiens); construct: expressed in transfected cells; host or cells: CHO cells; assay: biochemical; format: binding; settings: Ki (nM) ± SEM, μ, Table 1b, N-oxides
Sequence (P35372 whole entry): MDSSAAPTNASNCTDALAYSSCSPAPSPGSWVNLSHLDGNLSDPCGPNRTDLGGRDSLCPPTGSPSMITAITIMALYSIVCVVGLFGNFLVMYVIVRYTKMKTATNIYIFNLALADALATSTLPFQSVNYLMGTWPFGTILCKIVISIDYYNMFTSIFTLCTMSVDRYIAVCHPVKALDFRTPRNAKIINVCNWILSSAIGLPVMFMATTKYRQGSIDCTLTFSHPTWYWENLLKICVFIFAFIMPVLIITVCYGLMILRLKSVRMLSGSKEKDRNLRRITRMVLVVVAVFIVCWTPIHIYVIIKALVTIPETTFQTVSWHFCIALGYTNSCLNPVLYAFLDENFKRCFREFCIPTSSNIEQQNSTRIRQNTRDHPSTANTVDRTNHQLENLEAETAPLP
Output label 1 for records whose Ki is lower than 30 nM, label 0 for records at or above 30 nM.

-- ask Report whether reported Ki is lower than 30 nM (strictly) for COc1ccc(CC(=O)N[C@@H]2CC[C@@]3(O)[C@H]4Cc5ccc(O)c6c5[C@@]3(CC[N+]4([O-])CC3CC3)[C@H]2O6)cc1 (some centres unmarked)
-- reply label 0

-- ask Does the reported Ki of NC(=NO)c1cccc(C(=O)NC2CCC3(O)C4Cc5ccc(O)c6c5C3(CC[N+]4([O-])CC3CC3)C2O6)c1 (centres unmarked) stay below 30 nM?
-- reply label 0

-- ask API: query returns whether the molecule falls strictly under 30 nM in Ki. Query: O=C(N[C@H]1CC[C@@]2(O)[C@H]3Cc4ccc(O)c5c4[C@@]2(CC[N+]3([O-])CC2CC2)[C@H]1O5)c1ccccc1 (some centres unmarked)
-- reply label 0

-- ask A record lists Cc1ccc(C(=O)N[C@@H]2CC[C@@]3(O)[C@H]4Cc5ccc(O)c6c5[C@@]3(CC[N+]4(C)[O-])[C@H]2O6)cc1 (some centres unmarked) . Is its Ki below 30 nM?
-- reply label 0

-- ask For O=C(N[C@@H]1CC[C@@]2(O)[C@H]3Cc4ccc(O)c5c4[C@@]2(CC[N+]3([O-])CC2CC2)[C@H]1O5)c1ccc([N+](=O)[O-])cc1 (some centres unmarked) , is the recorded Ki below the cut-off of 30 nM?
-- reply label 0

-- ask In plain terms, does COc1ccc(C(=O)N[C@H]2CC[C@@]3(O)[C@H]4Cc5ccc(O)c6c5[C@@]3(CC[N+]4([O-])CC3CC3)[C@H]2O6)cc1OC (some centres unmarked) come in under 30 nM for Ki?
-- reply label 1

-- ask I'd appreciate it if you could check whether CN(C(=O)c1ccc(Br)cc1)[C@H]1CC[C@@]2(O)[C@H]3Cc4ccc(O)c5c4[C@@]2(CC[N+]3([O-])CC2CC2)[C@H]1O5 (some centres unmarked) has Ki smaller than 30 nM.
-- reply label 1

-- ask Take the molecule CN(C(=O)/C=C/c1ccoc1)[C@@H]1CC[C@@]2(O)[C@H]3Cc4ccc(O)c5c4[C@@]2(CC[N+]3([O-])CC2CC2)[C@H]1O5 (relative stereo) and say whether its Ki is less than 30 nM.
-- reply label 0

-- ask Would you kindly verify if Ki of O=C(Cc1ccccc1)N[C@@H]1CC[C@@]2(O)[C@H]3Cc4ccc(O)c5c4[C@@]2(CC[N+]3([O-])CC2CC2)[C@H]1O5 (some centres unmarked) is strictly less than 30 nM?
-- reply label 0

-- ask Just wondering, is Ki of COc1cccc(C(=O)N[C@@H]2CC[C@@]3(O)[C@H]4Cc5ccc(O)c6c5[C@@]3(CC[N+]4([O-])CC3CC3)[C@H]2O6)c1 (some centres unmarked) [Compound 42] below 30 nM?
-- reply label 0

-- ask Say whether its Ki is strictly beneath 30 nM. Entry: O=C(N[C@@H]1CC[C@@]2(O)[C@H]3Cc4ccc(O)c5c4[C@@]2(CC[N+]3([O-])CC2CC2)[C@H]1O5)c1ccc(Cl)c(Cl)c1 (some centres unmarked)
-- reply label 1

-- ask Bench note: check whether O=C(N[C@@H]1CC[C@@]2(O)[C@H]3Cc4ccc(O)c5c4[C@@]2(CC[N+]3([O-])CC2CC2)[C@H]1O5)c1ccccc1 (some centres unmarked) shows Ki below 30 nM
-- reply label 1

-- ask Quick check: does O=C(N[C@@H]1CC[C@@]2(O)[C@H]3Cc4ccc(O)c5c4[C@@]2(CC[N+]3([O-])CC2CC2)[C@H]1O5)c1ccc(Br)cc1 (some centres unmarked) have Ki under 30 nM?
-- reply label 1

-- ask # check: Ki < 30 nM for O=C(N[C@@H]1CC[C@@]2(O)[C@H]3Cc4ccc(O)c5c4[C@@]2(CC[N+]3([O-])CC2CC2)[C@H]1O5)c1ccc(C(F)(F)F)cc1 (some centres unmarked)
-- reply label 1

-- ask Could you please tell me whether Ki recorded for N#Cc1cccc(C(=O)N[C@@H]2CC[C@@]3(O)[C@H]4Cc5ccc(O)c6c5[C@@]3(CC[N+]4([O-])CC3CC3)[C@H]2O6)c1 (some centres unmarked) is less than 30 nM?
-- reply label 0

-- ask Hello, I'm reviewing records and need to know if Ki of O=C(N[C@@H]1CC[C@@]2(O)[C@H]3Cc4ccc(O)c5c4[C@@]2(CC[N+]3([O-])CC2CC2)[C@H]1O5)c1cccc(O)c1 (some centres unmarked) is below 30 nM. Could you check?
-- reply label 0

-- ask # check: Ki < 30 nM for Cc1ccc(C(=O)N[C@@H]2CC[C@@]3(O)[C@H]4Cc5ccc(O)c6c5[C@@]3(CC[N+]4([O-])CC3CC3)[C@H]2O6)cc1 (some centres unmarked)
-- reply label 1

-- ask I wonder whether O=C(NC1CCC2(O)C3Cc4ccc(O)c5c4C2(CC[N+]3([O-])CC2CC2)C1O5)c1ccc(C(F)(F)F)c(F)c1 (centres unmarked) has Ki below 30 nM. Can you tell?
-- reply label 1

-- ask Regarding CN(C(=O)c1ccc(I)cc1)C1CCC2(O)C3Cc4ccc(O)c5c4C2(CC[N+]3([O-])CC2CC2)C1O5 (centres unmarked) , kindly confirm whether its Ki is beneath 30 nM.
-- reply label 0

###

Provide the recorded Ki for the entries that follow.
biological target: μ-opioid receptor (Homo sapiens); construct: expressed in transfected cells; host or cells: CHO cells; test: biochemical; assay type: binding; conditions: read-out: Ki (nM) ± SEM, μ
Give the value, in units of nM, as a plain number.

-- ask Please look up its Ki: O=C(Cc1cccs1)N[C@@H]1CC[C@@]2(O)[C@H]3Cc4ccc(O)c5c4[C@@]2(CC[N+]3([O-])CC2CC2)[C@H]1O5 (some centres unmarked) [Compound 25]
-- reply 34.8

-- ask Consider the compound shown here: CN(C(=O)c1ccc(C(C)(C)C)cc1)[C@H]1CC[C@@]2(O)[C@H]3Cc4ccc(O)c5c4[C@@]2(CC[N+]3([O-])CC2CC2)[C@H]1O5 (some centres unmarked) [Compound 48] What is its recorded Ki?
-- reply 26

-- ask Fill blank: measured Ki of the compound CN(C(=O)c1ccc(C(C)(C)C)cc1)[C@@H]1CC[C@@]2(O)[C@H]3Cc4ccc(O)c5c4[C@@]2(CC[N+]3([O-])CC2CC2)[C@H]1O5 (some centres unmarked) [Compound 27] is ____.
-- reply 714

-- ask // returns reported Ki for input CN(C)c1ccc(C(=O)N[C@@H]2CC[C@@]3(O)[C@H]4Cc5ccc(O)c6c5[C@@]3(CC[N+]4([O-])CC3CC3)[C@H]2O6)cc1 (some centres unmarked) [Compound 24]
-- reply 478

-- ask // returns reported Ki for input CN(C(=O)c1ccc(Cl)cc1)[C@H]1CC[C@@]2(O)[C@H]3Cc4ccc(O)c5c4[C@@]2(CC[N+]3([O-])CC2CC2)[C@H]1O5 (some centres unmarked) [Compound 50]
-- reply 369

###

Exercise: state measured Ki for each of the compounds provided.
biological target: κ-opioid receptor (Homo sapiens, UniProt P41145); construct: expressed in transfected cells; host or cells: CHO cells; assay: biochemical; format: binding; conditions: read-out: Ki (nM) ± SEM, κ
Sequence (P41145 whole entry): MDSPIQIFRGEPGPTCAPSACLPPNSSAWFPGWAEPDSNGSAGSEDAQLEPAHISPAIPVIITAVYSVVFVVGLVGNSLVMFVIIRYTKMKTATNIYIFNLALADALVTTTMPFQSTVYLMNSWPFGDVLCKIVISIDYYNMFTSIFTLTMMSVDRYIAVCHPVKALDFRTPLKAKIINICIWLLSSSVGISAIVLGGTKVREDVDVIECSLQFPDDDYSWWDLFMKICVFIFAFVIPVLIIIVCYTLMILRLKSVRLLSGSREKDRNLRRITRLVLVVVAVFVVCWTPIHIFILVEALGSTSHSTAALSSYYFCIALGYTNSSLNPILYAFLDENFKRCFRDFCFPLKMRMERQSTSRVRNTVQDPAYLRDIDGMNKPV
The answer is to be given in nM; state only the numeric part.

-- ask Query: Ki; subject: CN(C(=O)c1ccc(I)cc1)C1CCC2(O)C3Cc4ccc(O)c5c4C2(CC[N+]3([O-])CC2CC2)C1O5 (centres unmarked) [Compound 54]
-- reply 117

-- ask Bench note: what Ki did O=C(N[C@@H]1CC[C@@]2(O)[C@H]3Cc4ccc(O)c5c4[C@@]2(CC[N+]3([O-])CC2CC2)[C@H]1O5)c1ccc(C(F)(F)F)cc1 (some centres unmarked) [Compound 22] show?
-- reply 1.9

-- ask Tell me the measured Ki of O=C(N[C@@H]1CC[C@@]2(O)[C@H]3Cc4ccc(O)c5c4[C@@]2(CC[N+]3([O-])CC2CC2)[C@H]1O5)c1ccc(Cl)c(Cl)c1 (some centres unmarked) [Compound 43] , please.
-- reply 2

-- ask What does the data say about its Ki? Entry: CN(C(=O)/C=C/c1ccoc1)[C@@H]1CC[C@@]2(O)[C@H]3Cc4ccc(O)c5c4[C@@]2(CC[N+]3([O-])CC2CC2)[C@H]1O5 (relative stereo) [Compound 44]
-- reply 3.9

-- ask Form field: reported Ki of COc1ccc(CC(=O)N[C@@H]2CC[C@@]3(O)[C@H]4Cc5ccc(O)c6c5[C@@]3(CC[N+]4([O-])CC3CC3)[C@H]2O6)cc1 (some centres unmarked) [Compound 39]
-- reply 10

-- ask Dear colleague, I am looking for the recorded Ki of the following compound: O=C(N[C@@H]1CC[C@@]2(O)[C@H]3Cc4ccc(O)c5c4[C@@]2(CC[N+]3([O-])CC2CC2)[C@H]1O5)c1cccc(O)c1 (some centres unmarked) [Compound 34]
-- reply 49

-- ask // query Ki value for entry O=C(N[C@@H]1CC[C@@]2(O)[C@H]3Cc4ccc(O)c5c4[C@@]2(CC[N+]3([O-])CC2CC2)[C@H]1O5)c1ccc(Cl)cc1 (some centres unmarked) [Compound 35]
-- reply 1.8

-- ask Form field: reported Ki of O=C(Cc1ccccc1)N[C@@H]1CC[C@@]2(O)[C@H]3Cc4ccc(O)c5c4[C@@]2(CC[N+]3([O-])CC2CC2)[C@H]1O5 (some centres unmarked) [Compound 33]
-- reply 47

-- ask // returns reported Ki for input COc1cccc(C(=O)N[C@@H]2CC[C@@]3(O)[C@H]4Cc5ccc(O)c6c5[C@@]3(CC[N+]4([O-])CC3CC3)[C@H]2O6)c1 (some centres unmarked) [Compound 42]
-- reply 16

-- ask Ki for O=C(N[C@@H]1CC[C@@]2(O)[C@H]3Cc4ccc(O)c5c4[C@@]2(CC[N+]3([O-])CC2CC2)[C@H]1O5)c1ccc(Br)cc1 (some centres unmarked) [Compound 63] ?
-- reply 6.3

-- ask Ki lookup needed for O=C(N[C@@H]1CC[C@@]2(O)[C@H]3Cc4ccc(O)c5c4[C@@]2(CC[N+]3([O-])CC2CC2)[C@H]1O5)c1ccccc1 (some centres unmarked) [Compound 32] , thanks.
-- reply 8.5

-- ask Fill in: Ki of CC(C)(C)c1ccc(C(=O)N[C@@H]2CC[C@@]3(O)[C@H]4Cc5ccc(O)c6c5[C@@]3(CC[N+]4([O-])CC3CC3)[C@H]2O6)cc1 (some centres unmarked) [Compound 23] is ___
-- reply 1.9

-- ask Given the entry O=C(N[C@@H]1CC[C@@]2(O)[C@H]3Cc4ccc(O)c5c4[C@@]2(CC[N+]3([O-])CC2CC2)[C@H]1O5)c1ccc([N+](=O)[O-])cc1 (some centres unmarked) [Compound 40] , report its measured Ki.
-- reply 6.7

-- ask Ki lookup needed for O=C(NC1CCC2(O)C3Cc4ccc(O)c5c4C2(CC[N+]3([O-])CC2CC2)C1O5)c1ccc(Cl)c(F)c1 (centres unmarked) [Compound 59] , thanks.
-- reply 2.5

-- ask Sample COc1cccc(C(=O)N[C@@H]2CC[C@@]3(O)[C@H]4Cc5ccc(O)c6c5[C@@]3(CC[N+]4([O-])CC3CC3)[C@H]2O6)c1 (some centres unmarked) [Compound 30] — what was its Ki?
-- reply 9.7

-- ask Request the reported Ki associated with Cc1ccc(C(=O)N[C@@H]2CC[C@@]3(O)[C@H]4Cc5ccc(O)c6c5[C@@]3(CC[N+]4([O-])CC3CC3)[C@H]2O6)cc1 (some centres unmarked) [Compound 21]
-- reply 3.1

-- ask Query: Ki; subject: N#Cc1cccc(C(=O)N[C@@H]2CC[C@@]3(O)[C@H]4Cc5ccc(O)c6c5[C@@]3(CC[N+]4([O-])CC3CC3)[C@H]2O6)c1 (some centres unmarked) [Compound 53]
-- reply 426

-- ask Which measured Ki value corresponds to COc1ccc(C(=O)N[C@@H]2CC[C@@]3(O)[C@H]4Cc5ccc(O)c6c5[C@@]3(CC[N+]4([O-])CC3CC3)[C@H]2O6)cc1OC (some centres unmarked) [Compound 29] ?
-- reply 71

-- ask If you can, please state the reported Ki value of Cc1ccc(C(=O)N[C@@H]2CC[C@@]3(O)[C@H]4Cc5ccc(O)c6c5[C@@]3(CC[N+]4(C)[O-])[C@H]2O6)cc1 (some centres unmarked) [Compound 55] .
-- reply 1190

-- ask I am curious: what Ki value has been reported for NC(=NO)c1cccc(C(=O)NC2CCC3(O)C4Cc5ccc(O)c6c5C3(CC[N+]4([O-])CC3CC3)C2O6)c1 (centres unmarked) [Compound 52] ?
-- reply 26
